test.system: T1, hRSV FTM- protein (membrane anchorless form of the fusion protein, 70 kDa) (human respiratory syncytial virus, UniProt P12568 26-524)
T1 construct: extracellular domain
assay.info: SPR (Biacore T100), FTM- amine-coupled on CM5 chip, 1:1 Langmuir fit
Listing of recorded Kd by entry.

| binder | Kd, nM |
| --- | --- |
| LG192H1 (VHH) VHH: EVQLVESGGGLVQAGGSLRLSCAASGIIFSTNHMGWYRRAPGKQRELVGTINRGDSPYYADSVKGRFTISRDNAKNMVYLQMNSLKPEDTAVYYCNAGYIYWGQGTQVTVSS | 3.72 |
| LG192F2 (VHH) VHH: EVQLVESGGGLVQAGGSLRLSCEASGRTFSPIAMGWFRQAPGKEREFVAVVTRWSGARTVYADSVKGRFTISRDNAENTVYLQMNSLKPEDTAVYTCAADSTNRNSGAIYYTWAYDYWGQGTQVTVSS | 7.14 |
| LG192H2 (VHH) VHH: EVQLVESGGGLVQAGGSLRLSCEASGRTFSNYAMGWFRQAPGKEREFVAVVTRWSGGRTVYADSVKGRFTISRDNAENTVYLQMNSLKPEDTAVYTCAADSTNRNSGAWYYTWAYDHWGQGTQVTVSS | 15.4 |
| LG192C6 (VHH) VHH: EVQLVESGGGLVQAGGSLRLSCEASGRTERYQAMGWFRQAPGKEREFVAVVTRWSGARTVYADSVKGRFTISRDNAENTVYLQMNSLKPEDTAVYTCAADSTNRNRGAIYYTWAYDYWGQGTQVTVSS | 7 |
| LG191D3 (VHH) VHH: EVQLVESGGGLVQAGGSLRLSCEASGRTYSRYGMGWFRQAPGKEREFVAAVSRLSGPRTVYADSVKGRFTISRDNAENTVYLQMNSLKPEDTAVYTCAAELTNRNSGAYYYAWAYDYWGQGTQVTVSS | 2.05 |
| LG192C10 (VHH) VHH: EVQLVESGGGLVQAGGSLRLSCAASEGYFRNYMVGWFRQAPGGERMFVAAISDTAYYADSVKGRFTISRDNAKNTVYLPMNSLKPEDTAVYYCAAAPKSWGTWPLVADTRSYHFWGQGTQVTVSS | 3.49 |
| LG192B1 (VHH) VHH: EVQLVESGGGLVQPGGSLRLSCAASGLTFRNYAIGWFRQAPGKEREGVSCINSGGSITDYLDSVKGRFAISRDNAKSTVYLQMNSLKPEDTAVYYCATDLTSSCPIYSGTDYWGKGTLVTVSS | 55.5 |
| LG192C4 (VHH) VHH: EVQLVESGGGLVQAGGSLRLSCEASGRTFSSYAMVGWFRQAPGKEREFVAAVTRWSGARTVYADSVKGRFTISRDNAENTVYLQMNSLKPEDTAVYTCAADSTNRNSGAVYYSWAYDYWGQGTQVTVSS | 7.47 |
| LG191B9 (VHH) VHH: EVQLVESGGGLVQAGGSLRLSCAASGRTFSSSFMAWFRQVLGSDREFVGGISPGGRFTYYADSRKGRFTISGDNANNTVYLQMHSVKPEDTATYYCAADTQFSGYVPKETNEYDYWGQGTQVTVSS | 25.4 |
| LG191E4 (VHH) VHH: EVQLVESGGGLVQAGGSLRLSCAASGPTFSADTMGWFRQAPGKEREFVATIPWSGGIAYYSDSVKGRFTMSRDNAKNTVDLQMNSLKPEDTALYYCAGSSRIYIYSDSLSERSYDYWGQGTQVTVSS | 0.7 |
| LG192A8 (VHH) VHH: EVQLVESGGGLVQAGGSLRLSCAASERTVIAYTMGWFRRAPGKERDFVAAMNWNGGNTIYADSAKGRFTISRDNAKNTVYLQMNSLKAEDTAVYYCAARPRFWGSYEYDYWGQGTQVTVSS | 2.91 |
